The values you see were collected from PubChem BioAssay (NCI).

Test system: UACC-62 melanoma
test description: NCI tumour cell line growth inhibition, 48 h
This section presents molecules with their documented TGI values.

molecule: Cc1ccc(C)c(N2C(=O)C(=O)C(c3nc4ccccc4s3)C(=Nc3cccc4c(=O)[nH][nH]c(=O)c34)C2=O)c1 (centres undefined)
tested system: UACC-62 melanoma
relation: >
TGI [µM]: 100
--
molecule: Cn1c(=O)nc2n(-c3ccc(Cl)c(C(F)(F)F)c3)c3ccccc3nc-2c1=O
tested system: UACC-62 melanoma
relation: =
TGI [µM]: 35.4
--
molecule: COc1ccc(-c2c(C3=NCCCN3)nnn2-c2ccc([N+](=O)[O-])cc2)cc1
tested system: UACC-62 melanoma
relation: >
TGI [µM]: 100
--
molecule: CCCCCCCCCCCCCCCCCCOCC(COCCOCC[N+]1(CCCCCC(=O)[O-])CCCC1)Oc1ncccn1 (centres undefined)
tested system: UACC-62 melanoma
relation: =
TGI [µM]: 14.2
--
molecule: c1ccc2[nH]c(CNc3ccc(C4C[Se]N=N4)cc3)nc2c1 (centres undefined)
tested system: UACC-62 melanoma
relation: =
TGI [µM]: 99
--
molecule: CC(C)(C)NCC(COc1ccc([N+](=O)[O-])cc1)OP(c1ccccc1)c1ccccc1 (centres undefined)
tested system: UACC-62 melanoma
relation: >
TGI [µM]: 100
--
molecule: CC(=O)Oc1c(C)c(C)c2c(c1C)CCC(C)(CC(=O)OCCCCCCCCCCC[P+](c1ccccc1)(c1ccccc1)c1ccccc1)O2 (centres undefined)
tested system: UACC-62 melanoma
relation: =
TGI [µM]: 0.982
--
molecule: COc1ccc([C@H]2C=[N+]([O-])O[C@H](OC3CCCC3)[C@@H]2OC(C)=O)cc1OC
tested system: UACC-62 melanoma
relation: =
TGI [µM]: 77.7
--
molecule: COc1cccc(COc2cc(-n3cnc4ccccc43)sc2C(N)=O)c1
tested system: UACC-62 melanoma
relation: >
TGI [µM]: 25

====

Below, each entry is listed alongside its reported TGI.
Test system: UACC-257 melanoma
test description: NCI tumour cell line growth inhibition, 48 h

compound: COc1cc(/C=C2\CCC(C)/C(=C\c3cc(OC)c(OC)c(OC)c3)C2=O)cc(OC)c1OC (stereo unspecified)
tested system: UACC-257 melanoma
TGI: 21.3 µM
--
compound: COc1cc([N+](=O)[O-])c(OC)c2c(Nc3ccc(S(=O)(=O)O)c4cc(S(=O)(=O)O)cc(S(=O)(=O)O)c34)cc(C)nc12
tested system: UACC-257 melanoma
TGI: > 100 µM
--
compound: CN(C)c1cccc2c1C(=O)C=CC21c2ccc(N(C)C)c3c(N(C)C)ccc(c23)C(c2ccccc2)C1c1ccccc1 (stereo unspecified)
tested system: UACC-257 melanoma
TGI: 27.2 µM
--
compound: O=S1SC(=S)C2C=CC=CC21 (stereo unspecified)
tested system: UACC-257 melanoma
TGI: > 100 µM
--
compound: CC#CC(O)(C(=O)OC1CC(C)N(C)C(C)(C)C1)C1CCCC1 (stereo unspecified)
tested system: UACC-257 melanoma
TGI: > 100 µM
--
compound: c1ccc2c(c1)CCCC/C2=N/OCC1CO1 (stereo unspecified)
tested system: UACC-257 melanoma
TGI: > 100 µM
--
compound: O=C(O)/C=C\C(=O)Nc1ccc(S(=O)(=O)c2ccc(NC(=O)/C=C\C(=O)O)cc2)cc1
tested system: UACC-257 melanoma
TGI: > 100 µM
--
compound: O=C(CC(C(=O)c1ccco1)c1ccco1)c1ccco1 (stereo unspecified)
tested system: UACC-257 melanoma
TGI: > 100 µM
--
compound: O=C(CC1(O)C(=O)Nc2c(Cl)ccc(Cl)c21)c1ccc(Cl)cc1Cl (stereo unspecified)
tested system: UACC-257 melanoma
TGI: 25.1 µM
--
compound: C=CCN1C(=O)/C(=C/c2ccc(C)cc2)N=C1SC1OC(COC(C)=O)C(OC(C)=O)C(OC(C)=O)C1OC(C)=O (stereo unspecified)
tested system: UACC-257 melanoma
TGI: > 100 µM
--
compound: O=C(NCCN1CCNCC1)c1ccc(Nc2nc3ccccc3c3occc23)cc1
tested system: UACC-257 melanoma
TGI: 33.8 µM
--
compound: O=C1C2=C(CCC2)Nc2cccc3ncn1c23
tested system: UACC-257 melanoma
TGI: > 100 µM
--
compound: CC(C)(C)NCC(COc1ccc([N+](=O)[O-])cc1)OP(c1ccccc1)c1ccccc1 (stereo unspecified)
tested system: UACC-257 melanoma
TGI: > 100 µM
--
compound: Cc1cccc(N=Nc2ccc(N=Nc3c(O)ccc4ccccc34)cc2C)c1
tested system: UACC-257 melanoma
TGI: > 100 µM
--
compound: Cc1cccc(C)c1N1C(=O)C(=O)C(c2nc3ccccc3s2)C(=Nc2cccc3c(=O)[nH][nH]c(=O)c23)C1=O (stereo unspecified)
tested system: UACC-257 melanoma
TGI: > 100 µM
--
compound: O=C(/C=C/c1ccc2c(c1)OCO2)Cc1nc2ccccc2[nH]c1=O
tested system: UACC-257 melanoma
TGI: 59.5 µM
--
compound: COc1ccccc1NC(=O)/C(=C/c1ccccc1)C(C)=O
tested system: UACC-257 melanoma
TGI: > 100 µM
--
compound: COc1ccc(C2c3cc4c(cc3OC(NCCO)C2C)OCO4)cc1 (stereo unspecified)
tested system: UACC-257 melanoma
TGI: 72.4 µM
--
compound: O=C1c2cccc3cccc(c23)C(=O)N1O
tested system: UACC-257 melanoma
TGI: > 100 µM
--
compound: O=C1CNS(=O)(=O)N1
tested system: UACC-257 melanoma
TGI: > 100 µM
--
compound: COc1cc2nc(-c3ccc(C(F)(F)F)cc3)cc(OCCCN3CCCC3)c2cc1OC
tested system: UACC-257 melanoma
TGI: 8.51 µM
